- experimentalTarget: furin, P09958;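 further: purified furin at 1:10 enzyme:substrate in 50 mM HEPES pH 7.5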
- Sequence (P09958 whole entry): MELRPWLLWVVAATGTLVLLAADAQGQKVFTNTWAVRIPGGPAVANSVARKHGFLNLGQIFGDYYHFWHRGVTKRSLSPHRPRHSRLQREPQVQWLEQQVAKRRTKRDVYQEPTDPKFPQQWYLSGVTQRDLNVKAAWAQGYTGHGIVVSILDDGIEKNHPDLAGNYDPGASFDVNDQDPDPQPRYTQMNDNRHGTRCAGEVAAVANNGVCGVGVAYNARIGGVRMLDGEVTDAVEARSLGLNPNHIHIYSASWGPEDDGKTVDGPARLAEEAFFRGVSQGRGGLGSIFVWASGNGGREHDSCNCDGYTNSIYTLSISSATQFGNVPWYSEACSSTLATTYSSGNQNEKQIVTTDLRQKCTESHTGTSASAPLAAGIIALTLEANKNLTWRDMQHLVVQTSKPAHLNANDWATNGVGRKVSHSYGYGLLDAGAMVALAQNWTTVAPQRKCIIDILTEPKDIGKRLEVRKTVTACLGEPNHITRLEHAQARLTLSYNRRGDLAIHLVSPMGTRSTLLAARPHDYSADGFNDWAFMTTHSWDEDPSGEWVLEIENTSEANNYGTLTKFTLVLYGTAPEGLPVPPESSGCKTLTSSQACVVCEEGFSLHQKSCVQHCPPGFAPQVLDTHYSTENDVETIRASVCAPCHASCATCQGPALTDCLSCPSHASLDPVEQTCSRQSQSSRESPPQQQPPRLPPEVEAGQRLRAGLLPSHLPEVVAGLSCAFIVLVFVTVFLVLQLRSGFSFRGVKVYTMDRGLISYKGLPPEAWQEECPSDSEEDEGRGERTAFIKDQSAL
- assay: furin cleavage Z-score vs untreated control; higher = more cleavage, active = 3.5 or more, inactive = 1 or less, 8 variable residues between constant flanks
- experimentalContext: 7.5 min
The other results are listed elsewhere or left out. No count for the full screen is at hand.
Outcome codes: active, inactive

>>> class("CARQPRKQGGAGNASASA [FS-2445]")
"inactive"
>>> class("CAEVVTSTWYAGNASASA [HC2249]")
"inactive"
>>> class("CAFRVRSRRWAGNASASA [FS-328]")
"active"
>>> class("CARAHRSVLAAGNASASA [FS-1943]")
"inactive"
